These measurements were taken from patent US20100029654A1.

Kindly state LDH (% of ctl) for each of the entries shown.
System: primary cortico-hippocampal neuron cultures
Experiment: lactate dehydrogenase (LDH) activity assay in parallel neuron cultures
Conditions: Primary Screening; table sorted by Aβ1-40
Where a name gives a salt, the structure may show the parent alone.

Look over these answered cases.
>>> result("O=C1c2ccccc2C(=O)C1c1ccccc1")
"107.9 % of ctl"
>>> result("C[C@H]1O[C@@H](O[C@H]2[C@@H](O)C[C@H](O[C@H]3[C@@H](O)C[C@H](O[C@H]4CC[C@@]5(C)[C@H](CC[C@@H]6[C@@H]5CC[C@]5(C)[C@@H](C7=CC(=O)OC7)CC[C@]65O)C4)O[C@@H]3C)O[C@@H]2C)C[C@H](O)[C@@H]1O")
"106.4 % of ctl"
>>> result("COc1ccc(Cc2nccc3cc(OC)c(OC)cc23)cc1OC [Papaverine Hydrochloride]")
"118.4 % of ctl"
>>> result("CCCCc1nc(Cl)c(CO)n1Cc1ccc(-c2ccccc2-c2nn[nH]n2)cc1")
"110.4 % of ctl"

Note: attention shifts to another entry.
Problem: Report measured LDH (% of ctl) on primary cortico-hippocampal neuron cultures; entry: CC(C)c1c(C(=O)Nc2ccccc2)c(-c2ccccc2)c(-c2ccc(F)cc2)n1CC[C@@H](O)C[C@@H](O)CC(=O)[O-].CC(C)c1c(C(=O)Nc2ccccc2)c(-c2ccccc2)c(-c2ccc(F)cc2)n1CC[C@@H](O)C[C@@H](O)CC(=O)[O-].[Ca+2]
Result: 99.4 % of ctl

====

Test system: Aβ1-40
Experiment: Aβ1-40 content in conditioned medium of primary cortico-hippocampal neuron cultures from Tg2576 mice (ELISA; primary and secondary dose-response screening)
Type: cell-based, mouse
Conditions: Mus musculus, Neuron, 24 h, primary screening, drug 100 μM, Tg2576 neuron cultures; table sorted by Aβ1-42; read-out: Ab1-40 (% of ctl)
Counter-ions that a name gives are not always drawn.
attributeMeasured: activity at 100 µM (%)
Answers are plain numbers, in %.

Record excerpt, results attached:
>>> numericvalue("CCOC(=O)C1=C[C@]2(CC)CCCN3CCc4c(n1c1ccccc41)[C@@H]32")
60.4
>>> numericvalue("NS(=O)(=O)c1cc2c(cc1Cl)N=CNS2(=O)=O [Chlorothiazide]")
107
>>> numericvalue("CC(CCc1ccccc1)NC(C)C(O)c1ccc(O)cc1 (stereo not shown) [Nylidrin Hydrochloride]")
70.5
>>> numericvalue("CC(COc1ccccc1)NC(C)C(O)c1ccc(O)cc1 (stereo not shown) [Isoxsuprine Hydrochloride]")
78.3
>>> numericvalue("CC(C)NCC(O)COc1ccc(CC(N)=O)cc1 (stereo not shown)")
90.4

# batch: return activity at 100 µM for each of the 2 compounds below
1. CC(=O)Nc1nnc(S(N)(=O)=O)s1 [Acetazolamide]
2. C=C(CC)C(=O)c1ccc(OCC(=O)O)c(Cl)c1Cl

Result:
115
4.4

Dear colleague, could you please provide activity at 100 µM for the compounds listed below?
1. C[N+]1(CCCCC[N+]2(C)CCCC2)CCCC1 [Pentolinium Tartrate]
2. CCCCc1nc(Cl)c(CO)n1Cc1ccc(-c2ccccc2-c2nn[nH]n2)cc1

Result:
1: 121; 2: 76

Problem: Return value of activity at 100 µM for input O=C(O)c1cccnc1 , no commentary.
Result: 101

====

Test system: primary cortico-hippocampal neuron cultures
Experiment: MTT in primary screening
Details: primary screening; table sorted by Aβ1-42
Consider the following molecules; for each one, report its MTT (% of ctl).

Observe how each entry below is paired with its result.
>>> result("CC(C)(C)NCC(O)COc1cccc2c1CC(O)C(O)C2 (stereo not shown)")
"102.8 % of ctl"
>>> result("CO[C@H]1[C@H](O)[C@H](O[C@H]2CC[C@@]3(C=O)[C@H](CC[C@@H]4[C@@H]3CC[C@]3(C)[C@@H](C5=CC(=O)OC5)CC[C@]43O)C2)O[C@@H](C)[C@@H]1O [Peruvoside]")
"98.8 % of ctl"
>>> result("O=c1cc(-c2ccccc2)oc2cc(O)cc(O)c12")
"84.5 % of ctl"

Then this molecule:
Problem: Read off the recorded MTT (% of ctl) for COCCOC(=O)C1=C(C)NC(C)=C(C(=O)OC(C)C)C1c1cccc([N+](=O)[O-])c1 (stereo not shown)
Result: 115.6 % of ctl

====

Field: MTT (% of ctl). Provide a value for each of the molecules that follow.
Tested on: primary cortico-hippocampal neuron cultures
Assay: MTT in primary screening
Conditions: Primary Screening; table sorted by Aβ1-40
Structures can show the parent of a compound that is named as a salt.

Recorded MTT (% of ctl), per entry:
>>> result("Nc1nc(N)c2nc(-c3ccccc3)c(N)nc2n1")
"93.8 % of ctl"
>>> result("CC(C)OC(=O)C(C)(C)Oc1ccc(C(=O)c2ccc(Cl)cc2)cc1 [Fenofibrate]")
"97.5 % of ctl"
>>> result("C=C[C@H]1C[N@@]2CC[C@H]1C[C@@H]2[C@@H](O)c1ccnc2ccc(OC)cc12 [Quinidine Gluconate]")
"46.8 % of ctl"
>>> result("CCCCc1nc(Cl)c(CO)n1Cc1ccc(-c2ccccc2-c2nn[nH]n2)cc1")
"71.3 % of ctl"
>>> result("NNc1nncc2ccccc12 [Hydralazine Hydrochloride]")
"95.7 % of ctl"
>>> result("CCN(CC)CCOC(=O)C(Cc1cccc2ccccc12)CC1CCCO1 (stereo not shown) [Nafronyl Oxalate]")
"103.2 % of ctl"

Problem: Provide one value: measured MTT (% of ctl) of CC(=O)O[C@H]1C[C@H](O[C@H]2[C@@H](O)C[C@H](O[C@H]3[C@@H](O)C[C@H](O[C@H]4CC[C@@]5(C)[C@H](CC[C@@H]6[C@@H]5C[C@@H](O)[C@]5(C)[C@@H](C7=CC(=O)OC7)CC[C@]65O)C4)O[C@@H]3C)O[C@@H]2C)O[C@H](C)[C@H]1O[C@@H]1O[C@H](CO)[C@@H](O)[C@H](O)[C@H]1O [Lanatoside C]
Result: 66.5 % of ctl

====

Test system: Aβ1-40
Test: Aβ1-40 content in conditioned medium of primary cortico-hippocampal neuron cultures from Tg2576 mice (ELISA; primary and secondary dose-response screening)
Assay type: cell-based, mouse
Details: Mus musculus, Neuron, 24 h, primary screening, drug 100 μM, Tg2576 neuron cultures; table sorted by Aβ1-42; read-out: Ab1-40 (% of ctl)
Counter-ions that a name gives are not always drawn.
// returns Condition not met unless activity at 100 µM is strictly below 80%, in which case Condition met

>>> discretelabel("CC(C)N(CCC(C(N)=O)(c1ccccc1)c1ccccn1)C(C)C (stereo not drawn) [Disopyramide Phosphate]")
"Condition not met"
>>> discretelabel("Cn1cnc2c1c(=O)[nH]c(=O)n2C")
"Condition not met"
>>> discretelabel("C=CCSCC1Nc2cc(Cl)c(S(N)(=O)=O)cc2S(=O)(=O)N1 (stereo not drawn) [Althiazide]")
"Condition met"

Kindly consider the entry below.
Problem: Determine whether this molecule shows activity at 100 µM lower than 80% (ties excluded): CNCCc1ccccn1 [Betahistine Hydrochloride]
Result: Condition not met

====

Would you mind telling me the reported LDH (% of ctl) of each entry?
Test system: primary cortico-hippocampal neuron cultures
Assay: lactate dehydrogenase (LDH) activity assay in parallel neuron cultures
Conditions: primary screening; table sorted by Aβ1-42
Structures can show the parent of a compound that is named as a salt.

See these solved cases before continuing.
>>> result("COc1cc([S+](C)[O-])ccc1-c1nc2ncccc2[nH]1 (stereo not drawn)")
"111.1 % of ctl"
>>> result("N=C(N)NC(=O)c1nc(Cl)c(N)nc1N [Amiloride Hydrochloride]")
"104.7 % of ctl"

Return reported LDH (% of ctl) values for all items listed beneath this line.
1. Cc1cccc(Nc2ccncc2S(=O)(=O)NC(=O)NC(C)C)c1 [Torsemide]
2. CCN1C[C@]2(C)CC[C@H](OC)[C@@]34C1[C@]1(OCO[C@@]15C[C@H](OC)[C@H]1C[C@]3(O)[C@@H]5[C@H]1OC)[C@@H](OC(C)=O)[C@H]24
3. CNC1(C)C2CCC(C2)C1(C)C (stereo not drawn) [Mecamylamine Hydrochloride]
4. O=[N+]([O-])O[C@H]1CO[C@H]2[C@@H]1OC[C@H]2O[N+](=O)[O-] [Isosorbide Dinitrate]
5. C[C@]12CCC(=O)C=C1C=C[C@@H]1[C@@H]2CC[C@@]2(C)[C@H]1CC[C@@]2(O)CCC(=O)O [Canrenoic Acid, Potassium Salt]

Result:
["107.5 % of ctl", "118.9 % of ctl", "97.0 % of ctl", "124.6 % of ctl", "106.9 % of ctl"]

Please go through the list and note LDH (% of ctl) for each compound.
1. NS(=O)(=O)c1cc2c(cc1Cl)N=C(CSCc1ccccc1)NS2(=O)=O [Benzthiazide]
2. CCOC(=O)[C@H](CCc1ccccc1)N[C@H]1CCc2ccccc2N(CC(=O)O)C1=O [Benazepril Hydrochloride]
3. CC(NCCC(c1ccccc1)c1ccccc1)c1ccccc1 (stereo not drawn) [Fendiline Hydrochloride]
4. CC(CCc1ccc(O)cc1)NCCc1ccc(O)c(O)c1 (stereo not drawn) [Dobutamine Hydrochloride]
5. COC(=O)[C@H]1[C@H]2C[C@H]3c4[nH]c5ccccc5c4CCN3C[C@H]2CC[C@@H]1O [Rauwolscine Hydrochloride]
6. COc1ccc(CCN(C)CCCC(C#N)(c2ccc(OC)c(OC)c2)C(C)C)cc1OC (stereo not drawn)
7. CC(C)(C)NCC(O)COc1cccc2[nH]c(=O)[nH]c12 (stereo not drawn)

Result:
["105.1 % of ctl", "103.5 % of ctl", "1881.4 % of ctl", "103.1 % of ctl", "109.4 % of ctl", "92.5 % of ctl", "109.3 % of ctl"]

Hey, quick one: what's LDH (% of ctl) for each of these?
1. C[C@H](CS)C(=O)N1CCC[C@H]1C(=O)O
2. CCOC(=O)NNc1nncc2ccccc12 [Todralazine Hydrochloride]
3. NC(N)=O
4. Cc1cc(C(C)(C)C)c(O)c(C)c1CC1=NCCN1 [Oxymetazoline Hydrochloride]
5. COc1ccccc1N1CCN(CCCNc2cc(=O)n(C)c(=O)n2C)CC1
6. COc1cc2c3cc1Oc1c(OC)c(OC)cc4c1[C@@H](Cc1cccc(c1)Oc1ccc(c(O)c1)C[C@@H]3N(C)CC2)N(C)CC4 [Berbamine Hydrochloride]
7. NS(=O)(=O)c1cc(C2(O)NC(=O)c3ccccc32)ccc1Cl (stereo not drawn)
8. CNCCc1ccccn1 [Betahistine Hydrochloride]

Result:
120.2 % of ctl
100.6 % of ctl
130.8 % of ctl
97.0 % of ctl
97.1 % of ctl
129.1 % of ctl
645.8 % of ctl
107.3 % of ctl

Provide the reported LDH (% of ctl) of each entry below, same order.
1. CCOC(=O)C1=C(COCCN)NC(C)=C(C(=O)OC)C1c1ccccc1Cl (stereo not drawn) [Amlodipine Besylate]
2. C#CCN(C)Cc1ccccc1 [Pargyline Hydrochloride]
3. CCN(CC)CCNC(=O)c1ccc(N)cc1 [Procainamide Hydrochloride]
4. CN1C[C@H](CNC(=O)OCc2ccccc2)C[C@@H]2c3cccc4c3c(cn4C)C[C@H]21
5. NNc1nncc2ccccc12 [Hydralazine Hydrochloride]

Result:
1. 1188.9 % of ctl
2. 116.9 % of ctl
3. 111.1 % of ctl
4. 159.3 % of ctl
5. 101.1 % of ctl

Dear colleague, could you please provide LDH (% of ctl) for the compounds listed below?
1. CCCc1nc(C(C)(C)O)c(C(=O)OCc2oc(=O)oc2C)n1Cc1ccc(-c2ccccc2-c2nnn[nH]2)cc1
2. CO[C@]12C[C@@H](COC(=O)c3cncc(Br)c3)CN(C)[C@@H]1Cc1cn(C)c3cccc2c13
3. COc1cc2nc(N3CCN(C(=O)c4ccco4)CC3)nc(N)c2cc1OC [Prazosin Hydrochloride]
4. CC(C)c1nc(N(C)S(C)(=O)=O)nc(-c2ccc(F)cc2)c1/C=C/[C@@H](O)C[C@@H](O)CC(=O)O
5. CC(COc1ccccc1)N(CCCl)Cc1ccccc1 (stereo not drawn) [Phenoxybenzamine Hydrochloride]

Result:
["90.7 % of ctl", "106.2 % of ctl", "260.2 % of ctl", "298.7 % of ctl", "81.3 % of ctl"]

Problem: Check the records and state LDH (% of ctl) for COc1ccc2cc1Oc1ccc(cc1)C[C@H]1c3cc(c(OC)cc3CCN1C)Oc1c(OC)c(OC)cc3c1[C@H](C2)N(C)CC3
Result: 117.6 % of ctl
